EC50 values by entry
# System: HIV-IIIb
# assayProtocol: Test A: Antiviral Assays in MT4 Cells
# Assay type: cell-based
# conditionLabel: Human immunodeficiency virus 1, IIIB, MT4, 120 h, MT-4 cells infected with HIV-IIIb (0.004 m.o.i.), 5 days of incubation, CellTiter-Glo chemiluminescence readout; read-out: EC50
Give the value in µM but do not write µM after it.

Examples from the recorded data:
* CC(C)(C)O[C@H](C(=O)O)c1c(CF)cc2ccccc2c1-c1ccc2c3c(ccnc13)CCO2 [Compound 31] | 0.11
* Cc1cc2ccc(Br)cc2c(-c2ccc(Cl)cc2)c1C(OC(C)(C)C)C(=O)O (stereo not shown) [Compound 71] | 35
* Cc1cc2c(C#N)c(C)ccc2c(-c2ccc3c4c(ccnc24)CCO3)c1[C@H](OC(C)(C)C)C(=O)O (atropisomer, axis not shown) [Compound 118] | 0.036

Input line: Specify reported EC50 for the compound shown: Cc1cc2cc(-c3ccc(Cl)cc3)ccc2c(-c2ccc(Cl)cc2)c1C(OC(C)(C)C)C(=O)O (stereo not shown) [Compound 66]
Output line: 0.29

* * *

EC50 values by entry
# Tested on: HIV-IIIb
# assayProtocol: Test A: Antiviral Assays in MT4 Cells
# Assay type: cell-based
# conditionLabel: Human immunodeficiency virus 1, IIIB, MT4, 120 h, MT-4 cells infected with HIV-IIIb (0.004 m.o.i.), 5 days of incubation, CellTiter-Glo chemiluminescence readout; read-out: EC50
Give the value in nM but do not write nM after it.

Examples from the recorded data:
• Cc1c([C@H](OC(C)(C)C)C(=O)O)c(-c2ccc(Cl)cc2)c2ccccc2c1Br [Compound 150B] = 260
• Cc1cc2ccc(CCC3CC3)cc2c(-c2ccc(Cl)cc2)c1C(OC(C)(C)C)C(=O)O (stereo not drawn) = 7100
• Cc1cc2ccc(-c3ccc(Cl)cc3)cc2c(-c2ccc(Cl)cc2)c1C(OC(C)(C)C)C(=O)O (stereo not drawn) = 8800
• Cc1cc2ccc(CCC3(O)CCCC3)cc2c(-c2ccc(Cl)cc2)c1C(OC(C)(C)C)C(=O)O (stereo not drawn) = 250
• Cc1c(C(OC(C)(C)C)C(=O)O)c(-c2ccc(Cl)cc2)c2ccccc2c1C#N (stereo not drawn) = 1100
• Cc1c(C(OC(C)(C)C)C(=O)O)c(-c2ccc(Cl)cc2)c2ccccc2c1-c1ccccc1 (stereo not drawn) = 340

Input line: Specify reported EC50 for the molecule shown: Cc1cc2ccccc2c(C2=CCC(C)CC2)c1[C@H](OC(C)(C)C)C(=O)O (stereo partly drawn)
Output line: 10

Input line: Specify reported EC50 for the molecule shown: Cc1c(C(OC(C)(C)C)C(=O)O)c(-c2ccc(Cl)cc2)c2ccccc2c1C (stereo not drawn)
Output line: 87

Input line: Specify reported EC50 for the molecule shown: Cc1cc2c(Cl)c(C)ccc2c(-c2ccc3c4c(ccnc24)CCO3)c1[C@H](OC(C)(C)C)C(=O)O (atropisomer, axis not shown)
Output line: 850

Input line: Specify reported EC50 for the molecule shown: Cc1cc2ccc(C#CC(C)(C)N)cc2c(-c2ccc3c(c2)CCCO3)c1C(OC(C)(C)C)C(=O)O (stereo not drawn)
Output line: 72

Input line: Specify reported EC50 for the molecule shown: `Cc1cc2cc(-c3cncnc3)ccc2c(-c2ccc(Cl)cc2)c1[C@H](OC(C)(C)C)C(=O)O`
Output line: 54

Input line: Specify reported EC50 for the molecule shown: Cc1cc2cc(C(F)F)c(F)cc2c(-c2ccc3c4c(ccnc24)CCO3)c1[C@H](OC(C)(C)C)C(=O)O (atropisomer, axis not shown)
Output line: 25000

Input line: Specify reported EC50 for the molecule shown: Cc1cc2cc(C(N)=O)c(F)cc2c(-c2ccc3c4c(ccnc24)CCO3)c1[C@H](OC(C)(C)C)C(=O)O (atropisomer, axis not shown)
Output line: 45000

Input line: Specify reported EC50 for the molecule shown: `Cc1cc2cc(-c3ncccn3)ccc2c(-c2ccc(Cl)cc2)c1[C@H](OC(C)(C)C)C(=O)O`
Output line: 160

Input line: Specify reported EC50 for the molecule shown: CCc1ccc2c(-c3ccc4c5c(ccnc35)CCO4)c([C@H](OC(C)(C)C)C(=O)O)c(C)cc2c1F (atropisomer, axis not shown)
Output line: 32
